Test system: Trichomonas vaginalis
Test Description: Trichomonicidal activity against Trichomonas vaginalis JH31A#4 trophozite assessed as inhibition of parasite growth at 150 uM after 24 hrs by resazurin redox dye based fluorimetric microtiter method
Type: functional
Measurement Context: JH31A#4, 24 h
Attribute: inhibition at 150 µM
Numeric answer only, unit % assumed.

Cl.O=C1CN(CCCN2CCCCC2)c2ccc([N+](=O)[O-])cc2N1 98.9
Cn1c(=O)c(=O)[nH]c2cc([N+](=O)[O-])ccc21 39

Now turn to the next compound.
Query string: So what does the record say about inhibition at 150 µM for O=C1CN(CCCO)c2ccc([N+](=O)[O-])cc2N1 ?
Result string: 68.1
